B1: library; numbered along this chain (parent)
chain: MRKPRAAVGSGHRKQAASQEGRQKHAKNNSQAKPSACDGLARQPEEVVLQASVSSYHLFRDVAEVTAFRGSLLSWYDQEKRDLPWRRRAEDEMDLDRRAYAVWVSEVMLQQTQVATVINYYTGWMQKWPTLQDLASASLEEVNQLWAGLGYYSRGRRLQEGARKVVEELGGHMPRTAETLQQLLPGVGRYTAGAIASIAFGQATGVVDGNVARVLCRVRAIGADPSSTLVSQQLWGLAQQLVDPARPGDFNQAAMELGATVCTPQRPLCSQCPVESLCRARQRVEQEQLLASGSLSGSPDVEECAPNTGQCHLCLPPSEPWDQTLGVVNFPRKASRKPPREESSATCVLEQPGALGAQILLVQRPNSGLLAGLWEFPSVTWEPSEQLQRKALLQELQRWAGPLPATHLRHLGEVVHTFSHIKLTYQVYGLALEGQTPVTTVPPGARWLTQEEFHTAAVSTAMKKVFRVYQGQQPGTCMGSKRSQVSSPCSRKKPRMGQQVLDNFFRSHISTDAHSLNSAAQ

- Variants of: B1
- method description: 8OG:A repair function score (normalized; synonymous = 0, nonsense = -1) (normalized log-likelihood score); higher = more repair activity (WT-like);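 note: cells sorted at 72 h after reporter transfection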
- measurement parameters: with 8OG:A DNA repair reporter (GFP) in HEK-293 MUTYH KO cells
Just so you know, the groups by 8OG:A repair function score go like this: low end = under -0.3, middle = from -0.3 up to -0.07, high end = -0.07 and over

Which band does L83A fall in? low end

Form field 'band' for T191S middle

Pick a category. Item: E160P low end

Form: Item = L184I ; Class = ? middle

The entry to classify is T406R ; which class holds it? high end

Exercise: read the entry C489V and state which class it falls under. high end

Exercise: read the entry T122L and state which class it falls under. high end

Returns: class label. Input: D82P high end

Could you tell me which band G148W belongs to? low end

Classify this variant: K463D middle
